Tested on: HCC827-YVMA cells (human ERBB2 exon20 insertion mutant A775_G776ins YVMA)
Test: Cell growth inhibition (CellTiter-Glo, 3 days) in HCC827-YVMA
Assay type: cell-based
Conditions: 72 h, 3 days after administration
Description: 1. Preparation of HCC827-SVD, HCC827-ASV and HCC827-YVMA Cell Lines […] HCC827(ATCC), HCC827-SVD, HCC827-ASV, HCC827-YVMA were seeded in 96-well plates at 5000 cells/well in 90 μl of RPMI growth medium containing 10% FBS and 1% Penicillin Streptomycin. […] The plates were then incubated at room temperature for 10 minutes and luminescence was recorded by EnSpire plate reader (PerkinElmer).
Please respond with reported GI50 for every item in the list.

Fill in the blank: the reported GI50 of C=CC(=O)N1CCC(Nc2cc3c(Nc4ccc(Oc5ccnc(N6CCC[C@@H]6C)c5)cc4F)ncnc3cc2OC)CC1 is ____.
30 to 60 nM

Same again, this time with C=CC(=O)N1CCC(Nc2cc3c(Nc4ccc(Oc5ccnc(N6CCS(=O)(=O)CC6)c5)cc4F)ncnc3cc2OC)CC1
600 to 1000 nM

Same again, this time with C=CC(=O)N1CCC(Nc2cc3c(Nc4ccc(Oc5ccnc(-c6nnc(C)o6)c5)cc4F)ncnc3cc2OC)CC1
< 30 nM

Same again, this time with C=CC(=O)N1CCC(Nc2cc3c(Nc4ccc(Oc5ccnc(N6CCN(C)C(=O)C6)c5)cc4F)ncnc3cc2OC)CC1
100 to 300 nM

====

Please respond with reported GI50 for every item in the list.
system: A431 cells

Fill in the blank: the reported GI50 of C=CC(=O)N1CCC(Nc2cc3c(Nc4ccc(Oc5ccnc(-c6ncc(C)s6)c5)cc4F)ncnc3cc2OC)CC1 is ____.
600 to 1000 nM

Same again, this time with C=CC(=O)N1CCC(Nc2cc3c(Nc4ccc(Oc5ccnc(N6CC(C(N)=O)C6)c5)cc4F)ncnc3cc2OC)CC1
≥ 1000 nM

Same again, this time with C=CC(=O)N1CCC(Nc2cc3c(Nc4ccc(Oc5ccnc(NC6CC6)c5)cc4F)ncnc3cc2OC)CC1
60 to 100 nM

Same again, this time with C=CC(=O)N1CCC(Nc2cc3c(Nc4ccc(Oc5ccnc(N6CC[C@@H](CO)C6)c5)cc4F)ncnc3cc2OC)CC1
300 to 600 nM

Same again, this time with C=CC(=O)N1CCC(Nc2cc3c(Nc4ccc(Oc5ccnc(-c6nc(C)ns6)c5)cc4F)ncnc3cc2OC)CC1
100 to 300 nM

Same again, this time with C=CC(=O)N1CCC(Nc2cc3c(Nc4ccc(Oc5ccnc(-c6nccs6)c5)cc4F)ncnc3cc2OC)CC1
300 to 600 nM

Same again, this time with C=CC(=O)N1CCC(Nc2cc3c(Nc4ccc(Oc5ccnc(N6CC[C@H](O)[C@H](F)C6)c5)cc4F)ncnc3cc2OC)CC1
≥ 1000 nM

Same again, this time with C=CC(=O)N1CCC(Nc2cc3c(Nc4ccc(Oc5ccnc(-c6csc(C)n6)c5)cc4F)ncnc3cc2OC)CC1
300 to 600 nM

Same again, this time with C=CC(=O)N1CCC(Nc2cc3c(Nc4ccc(Oc5ccnc(-c6cccc(C)c6)c5)cc4F)ncnc3cc2OC)CC1
300 to 600 nM

Same again, this time with C=CC(=O)N1CCC(Nc2cc3c(Nc4ccc(Oc5ccnc(N6CCCC(C)(O)C6)c5)cc4F)ncnc3cc2OC)CC1 (stereo not drawn)
600 to 1000 nM

Same again, this time with C=CC(=O)N1CCC(Nc2cc3c(Nc4ccc(Oc5ccnc(N6CCN(C)C(=O)C6)c5)cc4F)ncnc3cc2OC)CC1
600 to 1000 nM

Same again, this time with C=CC(=O)N1CCC(Nc2cc3c(Nc4ccc(Oc5ccnc(N6CC[C@H](OC)C6)c5)cc4F)ncnc3cc2OC)CC1
300 to 600 nM

Same again, this time with C=CC(=O)N1CCC(Nc2cc3c(Nc4ccc(Oc5nc(-c6cnc(OCC)nc6)cs5)cc4F)ncnc3cc2OC)CC1
100 to 300 nM

Same again, this time with C=CC(=O)N1CCC(Oc2cc3c(Nc4ccc(Oc5ccnc(N6C[C@@H](C)N(C)[C@@H](C)C6)c5)cc4F)ncnc3cc2OC)CC1
≥ 1000 nM

Same again, this time with C=CC(=O)N1CCC(Nc2cc3c(Nc4ccc(Oc5nc(-c6cnc(C)nc6)cs5)cc4F)ncnc3cc2OC)CC1
100 to 300 nM

Same again, this time with COc1cc2ncnc(Nc3ccc(Oc4ccn(-c5cnc(C)c(F)c5)n4)cc3F)c2cc1NC1CCN(C(=O)/C=C/CN(C)C)CC1
≥ 1000 nM

Same again, this time with C=CC(=O)Nc1cc2c(Nc3ccc(Oc4ccnc(-c5nc(C)cs5)c4)cc3F)ncnc2cc1OCC
≥ 1000 nM

Same again, this time with C=CC(=O)N1CCC(Nc2cc3c(Nc4ccc(Oc5nc(-c6cnc(C7CC7)nc6)cs5)cc4F)ncnc3cc2OC)CC1
100 to 300 nM

Same again, this time with C=CC(=O)N1CCC(Nc2cc3c(Nc4ccc(Oc5ccnc(N6CC(C(C)(C)O)C6)c5)cc4F)ncnc3cc2OC)CC1
≥ 1000 nM

Same again, this time with C=CC(=O)N1CCC(Nc2cc3c(Nc4ccc(Oc5ccnc(N6CCOC(C)(C)C6)c5)cc4F)ncnc3cc2OC)CC1
≥ 1000 nM

Same again, this time with C=CC(=O)N1CCC(Nc2cc3c(Nc4ccc(Oc5ccnc(-c6ccccc6)c5)cc4F)ncnc3cc2OC)CC1
≥ 1000 nM

Same again, this time with C=CC(=O)N1CCC(Nc2cc3c(Nc4ccc(Oc5ccnc(N6CCC[C@@H](O)C6)c5)cc4F)ncnc3cc2OC)CC1
≥ 1000 nM

Same again, this time with C=CC(=O)N1CCC(Nc2cc3c(Nc4ccc(Oc5ccnc(N6CC(C)(O)C6)c5)cc4F)ncnc3cc2OC)CC1
100 to 300 nM

Same again, this time with C=CC(=O)N1CCC(Nc2cc3c(Nc4ccc(Oc5ccnc(NC6CCOCC6)c5)cc4F)ncnc3cc2OC)CC1
100 to 300 nM

Same again, this time with C=CC(=O)N1CCC(Nc2cc3c(Nc4ccc(Oc5ccnc(N6CC7(CCOCC7)C6)c5)cc4F)ncnc3cc2OC)CC1
100 to 300 nM

Same again, this time with C=CC(=O)N1CCC(Nc2cc3c(Nc4ccc(Oc5ccnc(N6CC7(CC(O)C7)C6)c5)cc4F)ncnc3cc2OC)CC1
≥ 1000 nM

Same again, this time with C=CC(=O)N1CCC(Nc2cc3c(Nc4ccc(Oc5ccnc(N6CCC(O)CC6)c5)cc4F)ncnc3cc2OC)CC1
≥ 1000 nM
